# System: Plasmodium falciparum 3D7 and W2 strains
# test.protocol: In vitro anti-plasmodial assay, both strains
# Format: cell-based
observed.property: Anti-plasmodial activity against both 3D7 and W2 (in words)

Here's what some known entries look like.
[[record]]
compound = "COc1ccc2c(c1OC)CC1c3c(cc4c(c3-2)OCO4)CCN1C (stereo not drawn)"
assay_system = "Plasmodium falciparum 3D7 and W2 strains"
observed_measurement = "strong activity"

[[record]]
compound = "COc1cccc2c1C(=O)c1nccc3cc4c(c-2c13)OCO4"
assay_system = "Plasmodium falciparum 3D7 and W2 strains"
observed_measurement = "not active"

[[record]]
compound = "COc1cc2c(cc1OC)[C@@H]1Cc3ccc(OC)c(OC)c3CN1CC2 [Tetrahydropalmatine 7, tetrahydropalmatine]"
assay_system = "Plasmodium falciparum 3D7 and W2 strains"
observed_measurement = "not active"

[[record]]
compound = "COc1cccc2c1C(=O)c1c3c-2c2c(cc3cc[n+]1C)OCO2"
assay_system = "Plasmodium falciparum 3D7 and W2 strains"
observed_measurement = "strong activity"

[[record]]
compound = "COc1cc2c(cc1OC)-c1cc3ccc(OC)c(OC)c3c[n+]1CC2 [Palmatine chloride 6, palmatine]"
assay_system = "Plasmodium falciparum 3D7 and W2 strains"
observed_measurement = "strong activity"


What value of Anti-plasmodial activity against both 3D7 and W2 (in words) has been recorded for this entry: COc1ccc2c(c1OC)-c1c3c(cc4c1C(C2)N(C)CC4)OCO3 (stereo not drawn)
strong activity

###

# System: chloroquine-susceptible 3D7 P. falciparum strain
# test.protocol: In vitro anti-plasmodial assay (HRP2 ELISA), 3D7
# Type: cell-based, Plasmodium falciparum
# particulars: Plasmodium falciparum, 3D7, 72 h, read-out: IC50 (μM ± SD) 3D7
observed.property: IC50 (µM)
Please reply with the bare figure in µM and do not write the unit itself.

[[record]]
compound = "CCN(CC)CCCC(C)Nc1ccnc2cc(Cl)ccc12 (stereo not drawn) [Chloroquine, reference compound]"
observed_property = "IC50"
observed_measurement = 0.021

[[record]]
compound = "COc1cccc2c1C[C@@H]1c3c(cc4c(c3-2)OCO4)CCN1C"
observed_property = "IC50"
observed_measurement = 0.69


Let us examine a further case.
What value of IC50 has been recorded for this entry: COc1ccc2c(c1OC)CC1c3c(cc4c(c3-2)OCO4)CCN1C (stereo not drawn)
1.56

###

# System: MDA-MB-468
# test.protocol: SRB cell proliferation assay, MDA-MB-468
# Format: cell-based, human
# particulars: Homo sapiens, MDA-MB-468; Table 2A; SRB, 72 h; read-out: IC50 (μM ± SD) MDA-MB-468
observed.property: IC50 (µM)
Please reply with the bare figure in µM and do not write the unit itself.

Here's what some known entries look like.
[[record]]
compound = "COc1cccc2c1C(=O)c1c3c-2c2c(cc3cc[n+]1C)OCO2"
observed_measurement = 0.78

[[record]]
compound = "COc1cccc2c1C(=O)c1nccc3cc4c(c-2c13)OCO4"
observed_measurement = 2.26


Let us examine a further case.
Query for MDA-MB-468: what IC50 does the record show for COc1ccc2c(c1OC)-c1c3c(cc4c1C(C2)N(C)CC4)OCO3 (centres unmarked) ?
48.1

###

# Test system: HeLa, MDA-MB231, MDA-MB-468, MCF7, 184B5 and MCF10A cell lines
# test.protocol: SRB cell proliferation assay, whole panel of cell lines
# Assay type: cell-based, human
# particulars: Homo sapiens, read-out: IC50 values, range over the cell lines examined
pIC50: −log10 of the molar value.
observed.property: pIC50

What value of pIC50 has been recorded for this entry: COc1ccc2c(c1OC)CC1c3c(cc4c(c3-2)OCO4)CCN1C (stereo not shown) [Crebanine 4, crebanine]
4.32 to 4.77

###

Each entry below carries its recorded SI 3D7 184B5.
# Test system: chloroquine-susceptible 3D7 P. falciparum strain
# test.protocol: In vitro anti-plasmodial assay (HRP2 ELISA), 3D7
# Format: cell-based, Plasmodium falciparum
# particulars: Table 3; selectivity index between 184B5 and parasites 3D7
Output: the number by itself.

Here's what some known entries look like.
[[record]]
compound = "COc1cccc2c1C[C@@H]1c3c(cc4c(c3-2)OCO4)CCN1C"
observed_property = "SI 3D7 184B5"
observed_measurement = 9.06

[[record]]
compound = "COc1cccc2c1C(=O)c1c3c-2c2c(cc3cc[n+]1C)OCO2"
observed_property = "SI 3D7 184B5"
observed_measurement = 12.58


Let us examine a further case.
What value of SI 3D7 184B5 has been recorded for this entry: OC(c1cc(C(F)(F)F)nc2c(C(F)(F)F)cccc12)C1CCCCN1 (stereo not drawn) [Mefloquine, reference compound]
207.6

###

# Tested on: 184B5
# test.protocol: SRB cell proliferation assay, 184B5 non-cancer cells
# Assay type: cell-based, human
# particulars: Homo sapiens, 184B5; Table 3; non-cancer cell line; read-out: IC50 (μM ± SD) 184B5
observed.property: IC50 (µM)
Please reply with the bare figure in µM and do not write the unit itself.

Here's what some known entries look like.
[[record]]
compound = "COc1cccc2c1C(=O)c1c3c-2c2c(cc3cc[n+]1C)OCO2"
observed_property = "IC50"
unit_info = "µM"
observed_measurement = 3.02

[[record]]
compound = "OC(c1cc(C(F)(F)F)nc2c(C(F)(F)F)cccc12)C1CCCCN1 (stereo not drawn) [Mefloquine, reference compound]"
observed_property = "IC50"
unit_info = "µM"
observed_measurement = 10.8

[[record]]
compound = "COc1cccc2c1C(=O)c1nccc3cc4c(c-2c13)OCO4"
observed_property = "IC50"
unit_info = "µM"
observed_measurement = 1.66


Let us examine a further case.
What value of IC50 has been recorded for this entry: COc1ccc2c(c1OC)-c1c3c(cc4c1C(C2)N(C)CC4)OCO3 (stereo not drawn)
73.3

###

# Test system: MDA-MB-231
# test.protocol: SRB cell proliferation assay, MDA-MB-231
# Type: cell-based, human
# particulars: Homo sapiens, MDA-MB-231; Table 2A; SRB, 72 h; read-out: IC50 (μM ± SD) MDA-MB-231
observed.property: IC50 (µM)
Please reply with the bare figure in µM and do not write the unit itself.

Here's what some known entries look like.
[[record]]
compound = "COc1ccc2c(c1OC)-c1c3c(cc4c1C(C2)N(C)CC4)OCO3 (centres unmarked)"
assay_system = "MDA-MB-231"
observed_property = "IC50"
unit_info = "µM"
observed_measurement = 56.6

[[record]]
compound = "COc1cccc2c1C(=O)c1c3c-2c2c(cc3cc[n+]1C)OCO2"
assay_system = "MDA-MB-231"
observed_property = "IC50"
unit_info = "µM"
observed_measurement = 7.11


Let us examine a further case.
What value of IC50 has been recorded for this entry: `COc1cccc2c1C(=O)c1nccc3cc4c(c-2c13)OCO4`
2.67

###

# System: MCF7
# test.protocol: SRB cell proliferation assay, MCF7
# Type: cell-based, human
# particulars: Table 2B; non-cancer 184B5 vs cancer MCF7
Each entry below carries its recorded Selectivity index (SI) 184B5 versus MCF7.
Output: the number by itself.

Here's what some known entries look like.
[[record]]
molecule = "COc1ccc2c(c1OC)-c1c3c(cc4c1C(C2)N(C)CC4)OCO3 (stereo not drawn)"
observed_property = "Selectivity index (SI) 184B5 versus MCF7"
observed_measurement = 1.86

[[record]]
molecule = "COc1cccc2c1C(=O)c1nccc3cc4c(c-2c13)OCO4"
observed_property = "Selectivity index (SI) 184B5 versus MCF7"
observed_measurement = 0.38

[[record]]
molecule = "CC(=O)O[C@H]1C(=O)[C@@]2(C)[C@H]([C@H](OC(=O)c3ccccc3)[C@]3(O)C[C@H](OC(=O)[C@H](O)[C@@H](NC(=O)c4ccccc4)c4ccccc4)C(C)=C1C3(C)C)[C@]1(OC(C)=O)CO[C@@H]1C[C@@H]2O [Paclitaxel, reference compound]"
observed_property = "Selectivity index (SI) 184B5 versus MCF7"
observed_measurement = 0.98

[[record]]
molecule = "COc1cccc2c1C[C@@H]1c3c(cc4c(c3-2)OCO4)CCN1C"
observed_property = "Selectivity index (SI) 184B5 versus MCF7"
observed_measurement = 0.96

[[record]]
molecule = "COc1cccc2c1C(=O)c1c3c-2c2c(cc3cc[n+]1C)OCO2"
observed_property = "Selectivity index (SI) 184B5 versus MCF7"
observed_measurement = 1.50


What value of Selectivity index (SI) 184B5 versus MCF7 has been recorded for this entry: COc1ccc2c(c1OC)CC1c3c(cc4c(c3-2)OCO4)CCN1C (stereo not drawn)
1.56

###

# assay.system: Aurora B (Homo sapiens, UniProt Q96GD4)
# Sequence (Q96GD4 whole entry): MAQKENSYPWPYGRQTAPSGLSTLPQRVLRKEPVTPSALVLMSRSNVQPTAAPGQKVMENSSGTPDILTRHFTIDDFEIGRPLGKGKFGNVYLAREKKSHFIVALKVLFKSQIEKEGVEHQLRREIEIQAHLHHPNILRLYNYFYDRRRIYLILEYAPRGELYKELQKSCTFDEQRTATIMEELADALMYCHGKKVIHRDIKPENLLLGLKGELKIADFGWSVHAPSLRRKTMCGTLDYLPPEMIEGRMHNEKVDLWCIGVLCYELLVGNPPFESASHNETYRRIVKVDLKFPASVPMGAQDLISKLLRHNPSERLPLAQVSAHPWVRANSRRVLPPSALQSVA
observed.property: pIC50
Please note pIC50 is a logarithmic value: minus log10 of concentration in mol/L. Answer with that number alone.

What value of pIC50 has been recorded for this entry: `COc1cccc2c1C(=O)c1nccc3cc4c(c-2c13)OCO4`
6.02
